// merged dataset of pKi values, system = NS3 (Hepatitis C virus, UniProt A3EZJ3), multiple refs
pKi: −log10 of the molar value.
endpoint: pKi

For reference, reported pKi for CCCC(NC(=O)[C@@H]1C[C@@H](OC(=O)N2CCc3ccccc3C2)CN1C(=O)[C@H](NC(=O)[C@H](NC(=O)c1cnccn1)C(C)C)C(C)C)C(=O)C(=O)N(C)CC(=O)O (stereo not given in full) stands at 5.28

P = CCCC(NC(=O)[C@@H]1C[C@@H]2CN1C(=O)[C@H](C1CCCCC1)NC(=O)Cc1cccc(c1)OCCC(C)(C)O2)C(=O)C(=O)NCC(=O)N[C@H](C(=O)N(C)C)c1ccccc1 (stereo not given in full)
Q = CC(C)(C)OC(=O)N[C@H](C(=O)N1C[C@H]2[C@@H]([C@H]1C(=O)NC(CC1CC1)C(=O)C(N)=O)C2(C)C)C1Cc2ccccc2C1 (stereo not given in full)
R = CCCC(NC(=O)[C@@H]1CC(OC(=O)N2CCc3ccccc3C2)CN1C(=O)[C@H](NC(=O)[C@H](NC(=O)c1cnccn1)C(C)C)C(C)C)C(=O)C(=O)N1C[C@@H]1c1ccccc1 (single isomer, unassigned)
Rank items: key pKi, increasing. Labels, ranked as asked.
R, Q, P
(R: 5.80, Q: 7.09, P: 8.22)

* * *

// merged dataset of Ki values, system = NS3 (Hepatitis C virus, UniProt A3EZJ3), multiple refs
endpoint: Ki (nM)

Observe how each entry below is paired with its result.
Value (Ki, NS3 (Hepatitis C virus, UniProt A3EZJ3)) for record CC(C)(C)OC(=O)N[C@H](C(=O)N1C[C@H]2[C@@H]([C@H]1C(=O)NC(CC1COC1)C(=O)C(N)=O)C2(C)C)C1CCCCC1 (some centres not stated) = 400

Value (Ki, NS3 (Hepatitis C virus, UniProt A3EZJ3)) for record CC(C)(C)OC(=O)N[C@H](C(=O)N1C[C@H]2[C@@H]([C@H]1C(=O)NC(CC1CC1)C(=O)C(N)=O)C2(C)C)C1CCCCC1 (some centres not stated) = 25

P = CCC[C@H](NC(=O)[C@@H]1C2CCCC2CN1C(=O)[C@@H](NC(=O)[C@@H](NC(=O)c1cnccn1)c1ccccc1)C(C)(C)C)C(=O)C(=O)NC1CC1 (some centres not stated)
Q = CCCC(NC(=O)[C@H](CC1OCCO1)NC(=O)[C@@H](NC(=O)OCC(C)C)C1CCCCC1)C(=O)C(=O)NCC(=O)N[C@H](C(=O)O)c1ccccc1 (some centres not stated)
R = CN(C(=O)N[C@H](C(=O)N1C[C@H]2[C@@H]([C@H]1C(=O)NC(CC1CCC1)C(=O)C(N)=O)C2(C)C)C(C)(C)C)C(C)(C)C (some centres not stated)
S = CCCC(NC(=O)[C@@H]1C2CCCC2CN1C(=O)[C@@H](NC(=O)[C@@H](NC(=O)Cc1nn[nH]n1)C1CCCCC1)C(C)(C)C)C(=O)C(=O)NC1CC1 (some centres not stated)
Rank items: key Ki, increasing. Labels, ranked as asked.
S, R, Q, P
(S: 30 nM, R: 100 nM, Q: 300 nM, P: 650 nM)

I = C=C(C)CC(NC(=O)[C@@H]1[C@@H]2[C@H](CN1C(=O)[C@@H](NC(=O)OC(C)(C)C)C1CCCCC1)C2(C)C)C(=O)C(N)=O (some centres not stated)
II = CC[C@H](NC(=O)[C@@H]1C[C@@H](OCc2ccccc2)CN1C(=O)[C@@H](NC(=O)[C@@H](NC(=O)c1cnccn1)C(C)C)C(C)C)C(=O)C(=O)N1CCCC1
// task: argmin of Ki over [ I , II ] Let me know the label of the one you choose.
I

I = CCC(NC(=O)[C@@H]1[C@@H]2[C@H](CN1C(=O)[C@@H](NC(=O)OC(C)(C)C)C1CCCCC1)C2(C)C)C(=O)C(N)=O (some centres not stated)
II = CC(C)c1ccc(CC[C@H](NC(=O)[C@@H]2CCCN2C(=O)[C@@H](NC(=O)[C@@H](NC(=O)[C@H](CCC(=O)O)NC(=O)[C@@H](N)CC(=O)O)C(C)C)C(C)C)B2O[C@@H]3C[C@@H]4C[C@@H](C4(C)C)[C@]3(C)O2)cc1
III = CCCC(NC(=O)[C@@H]1C[C@@H]2CN1C(=O)[C@H](C1CCCCC1)NC(=O)Cc1cccc(c1)OCCCO2)C(=O)C(=O)NCC(=O)N[C@H](C(=O)OC(C)(C)C)c1ccccc1 (some centres not stated)
Order the records so the highest Ki appears first and the lowest last. Labels, ranked as asked.
I, III, II

I = CCCC(NC(=O)[C@@H]1C2CCCC2CN1C(=O)[C@@H](NC(=O)[C@@H](NC(=O)c1cnccn1)C1CCCCC1)C(C)(C)C)C(=O)C(=O)N[C@H](C)CC (some centres not stated)
II = CCCC(NC(=O)[C@H](CC(C)C)NC(=O)[C@@H](NC(=O)OCC(C)C)C1CCCCC1)C(=O)C(=O)NCC(=O)N[C@H](C(=O)O)C1CCN(C(=O)OC(C)(C)C)CC1 (some centres not stated)
III = CC[C@H](NC(=O)[C@@H]1C[C@@H](OCc2ccccc2)CN1C(=O)[C@@H](NC(=O)[C@@H](NC(=O)c1cnccn1)C(C)C)C(C)C)C(=O)c1nnc(-c2ccccc2)o1
IV = C=CCNC(=O)C(=O)[C@H](CCC)NC(=O)[C@@H]1CN(Cc2ccccc2)C(=O)N1C(=O)[C@@H](NC(=O)[C@@H](NC(=O)[C@H](CCC(=O)O)NC(=O)[C@H](CCC(=O)O)NC(C)=O)C(C)C)C(C)C
Rank items: key Ki, increasing. Labels, ranked as asked.
I, IV, II, III

I = CC(C)(C)OC(=O)N[C@H](C(=O)N1C[C@H]2[C@@H](C1C(=O)NC(CC(F)(F)F)C(=O)C(N)=O)C2(C)C)C1CCCCC1 (some centres not stated)
II = CC(C)(C)OC(=O)N[C@H](C(=O)N1C[C@H]2[C@@H]([C@H]1C(=O)NC(CC1CCCC1)C(=O)C(N)=O)C2(C)C)C1CCCCC1 (some centres not stated)
// task: argmin of Ki over [ I , II ] Let me know the label of the one you choose.
I
(I: 50 nM, II: 150 nM)

1 = CCCC(NC(=O)[C@@H]1[C@@H]2[C@H](CN1C(=O)[C@@H](NC(=O)OC(C)(C)C)C1CCCCC1)C2(C)C)C(=O)C(=O)NC (some centres not stated)
2 = CC[C@H](NC(=O)[C@@H]1C[C@@H](OCc2ccccc2)CN1C(=O)[C@@H](NC(=O)[C@@H](NC(=O)c1cnccn1)C(C)C)C(C)C)C(=O)C(=O)N[C@@H](C)c1ccccc1
// task: argmin of Ki over [ 1 , 2 ] Let me know the label of the one you choose.
2
(2: 920 nM, 1: 1500 nM)

A = CCCC(NC(=O)[C@@H]1Cc2cccc(c2)/C=C/CCCCCC(=O)N[C@@H](C2CCCCC2)C(=O)N1)C(=O)C(=O)NCC(=O)N[C@H](C(=O)OC(C)(C)C)c1ccccc1 (some centres not stated)
B = CCCC(NC(=O)[C@@H]1C[C@@H]2CN1C(=O)[C@H]([C@H]1CC[C@@H](C(=O)O)CC1)NC(=O)Cc1cccc(c1)OCCCO2)C(=O)C(=O)NCC(=O)N[C@H](C(=O)N(C)C)c1ccccc1 (some centres not stated)
// task: argmin of Ki over [ A , B ] Let me know the label of the one you choose.
B
